target of assay: APOL1 G1 Protein (Homo sapiens, UniProt O14791, I384M/S342G)
Sequence (O14791 28-398 S342G/I384M): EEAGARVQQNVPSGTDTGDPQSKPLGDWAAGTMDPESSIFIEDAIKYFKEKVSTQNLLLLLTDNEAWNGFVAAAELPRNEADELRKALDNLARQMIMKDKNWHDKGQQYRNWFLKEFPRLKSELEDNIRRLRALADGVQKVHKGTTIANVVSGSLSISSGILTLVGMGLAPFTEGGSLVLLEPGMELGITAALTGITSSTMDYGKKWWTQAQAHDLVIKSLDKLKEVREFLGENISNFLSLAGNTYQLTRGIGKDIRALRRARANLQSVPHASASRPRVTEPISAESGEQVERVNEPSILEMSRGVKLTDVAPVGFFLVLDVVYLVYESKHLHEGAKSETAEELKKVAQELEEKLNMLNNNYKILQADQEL
protocol summary: Trypanosoma brucei brucei Lysis Assay Using APOL1 Recombinant Protein (AlamarBlue viability)
setup conditions: read-out: Trypanosomal Assay (IC50)
readout kind: IC50

CC(=O)NCC(F)(F)Cc1c(-c2ccc(F)cc2)[nH]c2c(F)cc(F)cc12 [Compound 515]: 250 to 1000 nM
C[C@H](CO)NC(=O)CCc1c(-c2ccc(F)cc2)[nH]c2c(F)cc(Br)cc12 [Compound 227]: < 250 nM
O=C(CCc1c(-c2ccc(F)cc2)[nH]c2c(F)cc(F)cc12)NC(CO)c1ccccn1 (centres unmarked) [Compound 185]: > 1000 nM
O=C(CCc1c(-c2ccc(F)cc2)[nH]c2ccc(F)cc12)NC1COC1 [Compound 69]: > 1000 nM
CC(C)(C)OC(=O)N[C@H]1C[C@H](NC(=O)CCc2c(-c3ccc(F)cc3)[nH]c3ccc(F)cc23)C1 [Compound 57]: > 1000 nM
CC(CNC(=O)OC(C)(C)C)NC(=O)CCc1c(-c2ccc(F)cc2)[nH]c2ccc(F)cc12 (racemic) [Compound 59]: > 1000 nM
COCC1(NC(=O)CCc2c(-c3ccc(F)cc3)[nH]c3c(F)cc(F)cc23)CC1 [Compound 102]: 250 to 1000 nM

Now look at this entry.
Q: For APOL1 G1 Protein (Homo sapiens, UniProt O14791, I384M/S342G), give IC50 of the listed compound: CC[C@H](CO)NC(=O)CCc1c(-c2ccc(F)cc2)[nH]c2ccc(F)cc12 [Compound 89]
Ans: < 250 nM
